Source of measurements: PubChem BioAssay (NCI)

System: DU-145 prostate
Assay: NCI tumour cell line growth inhibition, 48 h
Decide using TGI: a value greater than or equal to 30 µM is satisfied, a smaller one is not satisfied.

[[record]]
compound = "Cc1c([N+](=O)[O-])oc2ccc3ccccc3c12"
group_label = "satisfied"

[[record]]
compound = "CC(C)=CCCC(C)C1=C(O)C(=O)C(C)=CC1=O (stereo not given)"
group_label = "satisfied"

[[record]]
compound = "Cc1cc(C(=O)c2ccccc2)c(C)c2c1[nH]c1ccc(Cl)cc12"
group_label = "satisfied"

[[record]]
compound = "COc1cc(-c2csc(NC(=O)Nc3cc(Cl)cc(Cl)c3)n2)cc(OC)c1OC"
group_label = "not satisfied"

[[record]]
compound = "O=C(NC(=S)Nc1cc(Cl)ccc1O)c1cccc(Br)c1"
group_label = "satisfied"

[[record]]
compound = "Brc1ccc2c(-c3csc(-c4c[nH]c5ccccc45)n3)c[nH]c2c1"
group_label = "satisfied"

[[record]]
compound = "O=[N+]([O-])c1cccc2nccc(NCCCO)c12"
group_label = "satisfied"

[[record]]
compound = "CC[C@H](C)C(=O)O[C@H]1C[C@H](O)C=C2C=C[C@H](C)[C@H](CC[C@@H](O)C[C@@H](O)CC(=O)O)[C@H]21"
group_label = "satisfied"

[[record]]
compound = "O=C(c1ccccc1)c1c(C(F)(F)F)n([O-])c2ccc(C(F)(F)F)cc2[n+]1=O"
group_label = "not satisfied"


----------
Tested on: OVCAR-5 ovarian
Assay: NCI tumour cell line growth inhibition, 48 h; in the data active means GI50 below about 0.43 µM; inactive means the rest
Labels: active, inactive

[[record]]
compound = "O=C1OCC2=C1C(c1ccccc1)c1cc3c(cc1N2CCO)OCCO3 (stereo unspecified)"
measurement_target = "OVCAR-5 ovarian"
group_label = "inactive"

[[record]]
compound = "CC#Cc1nc(Nc2cc(C)[nH]n2)c2ccccc2n1"
measurement_target = "OVCAR-5 ovarian"
group_label = "inactive"

[[record]]
compound = "Cc1ccc(Sc2cc3c(oc2=O)-c2ccccc2OC3O)cc1 (stereo unspecified)"
measurement_target = "OVCAR-5 ovarian"
group_label = "inactive"

[[record]]
compound = "COc1cc(-c2csc(NC(=O)Nc3cc(Cl)cc(Cl)c3)n2)cc(OC)c1OC"
measurement_target = "OVCAR-5 ovarian"
group_label = "inactive"

[[record]]
compound = "CCCCCCCCCCCCCCCC1=NC(C)(C)CN1C(C)C"
measurement_target = "OVCAR-5 ovarian"
group_label = "inactive"

[[record]]
compound = "Cc1nc2ccccc2c(/C=C/c2ccc(Cl)cc2)c1C(=O)/C=C/c1ccccc1"
measurement_target = "OVCAR-5 ovarian"
group_label = "inactive"

[[record]]
compound = "COc1cc(NC(=O)C2=C(N3CCOCC3)/C(=C/c3ccc(Cl)cc3)CC2)cc(OC)c1OC"
measurement_target = "OVCAR-5 ovarian"
group_label = "inactive"

[[record]]
compound = "O=C(c1ccccc1)c1c(C(F)(F)F)n([O-])c2ccc(C(F)(F)F)cc2[n+]1=O"
measurement_target = "OVCAR-5 ovarian"
group_label = "active"

[[record]]
compound = "COC(=O)C(C)NC(=O)c1ccccc1I(OS(=O)(=O)C(F)(F)F)c1ccccc1 (stereo unspecified)"
measurement_target = "OVCAR-5 ovarian"
group_label = "inactive"

[[record]]
compound = "N=C(N)c1ccc(-c2ccc(-c3ccc(Cl)cc3Cl)s2)cc1"
measurement_target = "OVCAR-5 ovarian"
group_label = "inactive"

[[record]]
compound = "COc1ccc2ccc3oc([N+](=O)[O-])cc3c2c1"
measurement_target = "OVCAR-5 ovarian"
group_label = "active"

